Literature-derived pKi for Muscarinic acetylcholine receptor M4 (Homo sapiens, UniProt P08173) follows.
# subject-of-test: Muscarinic acetylcholine receptor M4 (Homo sapiens, UniProt P08173)
# Sequence (P08173 whole entry): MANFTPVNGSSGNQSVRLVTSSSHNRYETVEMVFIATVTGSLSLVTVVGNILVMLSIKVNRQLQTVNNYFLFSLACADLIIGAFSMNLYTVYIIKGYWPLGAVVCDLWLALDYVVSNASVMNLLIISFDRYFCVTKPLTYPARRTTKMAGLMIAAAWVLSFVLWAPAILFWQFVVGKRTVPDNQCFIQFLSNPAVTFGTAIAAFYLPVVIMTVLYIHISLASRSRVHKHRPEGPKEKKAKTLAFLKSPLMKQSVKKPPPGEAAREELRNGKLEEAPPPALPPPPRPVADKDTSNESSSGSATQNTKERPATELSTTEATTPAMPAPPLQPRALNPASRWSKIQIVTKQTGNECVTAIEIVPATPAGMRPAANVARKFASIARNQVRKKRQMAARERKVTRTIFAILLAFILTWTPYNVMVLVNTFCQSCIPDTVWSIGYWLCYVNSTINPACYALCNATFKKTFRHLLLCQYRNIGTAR
pKi: −log10 of the molar value.
So basically, the class depends on measured pKi, and the ranges are label 0 (below 6), label 1 (6 to below 7), label 2 (7 or more)

{"compound": "c1ccc(-c2ccc(N3CCN(Cc4c[nH]c5ncccc45)CC3)cc2)cc1", "cat": "label 0"}
{"compound": "Oc1cccc(C2NCCc3c2[nH]c2ccccc32)c1 (centres undefined)", "cat": "label 0"}
{"compound": "COc1ccc([S+]([O-])c2ccc(C(C)C3CCN(C4CCCCC4)CC3)cc2)cc1 (centres undefined)", "cat": "label 2"}
{"compound": "O=C(CN1CCCc2cnccc21)N1CCCC1", "cat": "label 0"}
{"compound": "O=C(CNC(=O)[C@@H]1CCCN1C(=O)CC(c1ccccc1)(c1ccccc1)c1ccccc1)NC[C@H]1CCCN(CC2CCCCC2)C1", "cat": "label 2"}

From here, focus on the item given below.
Field: class (pKi) — entry: "C[N+]1(CCCC(O)(c2ccccc2)c2ccccc2)CCN(c2ccccc2)CC1"
label 0

###

pKi: −log10 of the molar value.
Literature-derived pKi for Muscarinic acetylcholine receptor M4 (Homo sapiens, UniProt P08173) follows.

Solved cases below.
{"compound": "COc1ccc(NC(=O)N2CCN(c3ccc(-c4ccccc4)cc3)CC2)cc1N1CCN(C)CC1", "subject-of-test": "Muscarinic acetylcholine receptor M4 (Homo sapiens, UniProt P08173)", "result": "< 5.00"}
{"compound": "O=C(NC[C@H]1CCCNC1)[C@H]1CCCN1C(=O)[C@@H]1CCCN1C(=O)CC(c1ccccc1)(c1ccccc1)c1ccccc1", "subject-of-test": "Muscarinic acetylcholine receptor M4 (Homo sapiens, UniProt P08173)", "result": "< 5.77"}

// below: pKi requested for another compound
Report pKi from Muscarinic acetylcholine receptor M4 (Homo sapiens, UniProt P08173) testing of CN1[C@@H]2C[C@@H]3C[C@H]1C(O3)C2OC(=O)N(c1ccccc1)c1ccccc1 (stereo partly drawn)
< 6.00

###

# subject-of-test: Muscarinic acetylcholine receptor M4 (Homo sapiens)
# Sequence (P08173 whole entry): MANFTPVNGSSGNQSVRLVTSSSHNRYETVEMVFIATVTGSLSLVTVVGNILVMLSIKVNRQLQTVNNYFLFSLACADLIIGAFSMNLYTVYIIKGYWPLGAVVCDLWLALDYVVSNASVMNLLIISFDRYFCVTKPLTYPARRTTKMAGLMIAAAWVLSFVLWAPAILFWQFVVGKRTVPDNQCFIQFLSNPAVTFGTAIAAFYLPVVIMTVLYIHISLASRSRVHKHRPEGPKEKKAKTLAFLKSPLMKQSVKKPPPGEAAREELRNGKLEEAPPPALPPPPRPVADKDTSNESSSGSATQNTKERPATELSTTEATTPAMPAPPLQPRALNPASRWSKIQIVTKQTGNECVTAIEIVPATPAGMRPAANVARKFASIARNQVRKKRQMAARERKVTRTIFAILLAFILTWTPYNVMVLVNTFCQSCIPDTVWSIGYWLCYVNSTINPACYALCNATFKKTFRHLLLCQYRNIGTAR
Literature-derived Ki for Muscarinic acetylcholine receptor M4 (Homo sapiens) follows.

Solved cases below.
{"compound": "COc1ccc(NC(=O)N2CCN(c3ccc(C(F)(F)F)cc3)CC2)cc1N1CCN(C)CC1", "Ki": "> 10 µM"}
{"compound": "CN1CCc2c(c3cccc4c3n2Cc2ccccc2C4)C1", "Ki": "> 10 µM"}
{"compound": "COc1ccc(NC(=O)c2ccc(-c3ccc(-c4noc(C)n4)cc3C)cc2)cc1N1CCN(C)CC1", "Ki": "> 10 µM"}
{"compound": "O=C(CN1CCc2ccc(F)cc21)N1CCCC1", "Ki": "> 100 µM"}

Return Ki (reported value) for this compound: Oc1c(F)cccc1CC1NCCc2c1[nH]c1ccccc21 (stereo not given)
> 300 µM
